molecular target: KAT6A (Homo sapiens)
Sequence (Q92794 whole entry, species assumed): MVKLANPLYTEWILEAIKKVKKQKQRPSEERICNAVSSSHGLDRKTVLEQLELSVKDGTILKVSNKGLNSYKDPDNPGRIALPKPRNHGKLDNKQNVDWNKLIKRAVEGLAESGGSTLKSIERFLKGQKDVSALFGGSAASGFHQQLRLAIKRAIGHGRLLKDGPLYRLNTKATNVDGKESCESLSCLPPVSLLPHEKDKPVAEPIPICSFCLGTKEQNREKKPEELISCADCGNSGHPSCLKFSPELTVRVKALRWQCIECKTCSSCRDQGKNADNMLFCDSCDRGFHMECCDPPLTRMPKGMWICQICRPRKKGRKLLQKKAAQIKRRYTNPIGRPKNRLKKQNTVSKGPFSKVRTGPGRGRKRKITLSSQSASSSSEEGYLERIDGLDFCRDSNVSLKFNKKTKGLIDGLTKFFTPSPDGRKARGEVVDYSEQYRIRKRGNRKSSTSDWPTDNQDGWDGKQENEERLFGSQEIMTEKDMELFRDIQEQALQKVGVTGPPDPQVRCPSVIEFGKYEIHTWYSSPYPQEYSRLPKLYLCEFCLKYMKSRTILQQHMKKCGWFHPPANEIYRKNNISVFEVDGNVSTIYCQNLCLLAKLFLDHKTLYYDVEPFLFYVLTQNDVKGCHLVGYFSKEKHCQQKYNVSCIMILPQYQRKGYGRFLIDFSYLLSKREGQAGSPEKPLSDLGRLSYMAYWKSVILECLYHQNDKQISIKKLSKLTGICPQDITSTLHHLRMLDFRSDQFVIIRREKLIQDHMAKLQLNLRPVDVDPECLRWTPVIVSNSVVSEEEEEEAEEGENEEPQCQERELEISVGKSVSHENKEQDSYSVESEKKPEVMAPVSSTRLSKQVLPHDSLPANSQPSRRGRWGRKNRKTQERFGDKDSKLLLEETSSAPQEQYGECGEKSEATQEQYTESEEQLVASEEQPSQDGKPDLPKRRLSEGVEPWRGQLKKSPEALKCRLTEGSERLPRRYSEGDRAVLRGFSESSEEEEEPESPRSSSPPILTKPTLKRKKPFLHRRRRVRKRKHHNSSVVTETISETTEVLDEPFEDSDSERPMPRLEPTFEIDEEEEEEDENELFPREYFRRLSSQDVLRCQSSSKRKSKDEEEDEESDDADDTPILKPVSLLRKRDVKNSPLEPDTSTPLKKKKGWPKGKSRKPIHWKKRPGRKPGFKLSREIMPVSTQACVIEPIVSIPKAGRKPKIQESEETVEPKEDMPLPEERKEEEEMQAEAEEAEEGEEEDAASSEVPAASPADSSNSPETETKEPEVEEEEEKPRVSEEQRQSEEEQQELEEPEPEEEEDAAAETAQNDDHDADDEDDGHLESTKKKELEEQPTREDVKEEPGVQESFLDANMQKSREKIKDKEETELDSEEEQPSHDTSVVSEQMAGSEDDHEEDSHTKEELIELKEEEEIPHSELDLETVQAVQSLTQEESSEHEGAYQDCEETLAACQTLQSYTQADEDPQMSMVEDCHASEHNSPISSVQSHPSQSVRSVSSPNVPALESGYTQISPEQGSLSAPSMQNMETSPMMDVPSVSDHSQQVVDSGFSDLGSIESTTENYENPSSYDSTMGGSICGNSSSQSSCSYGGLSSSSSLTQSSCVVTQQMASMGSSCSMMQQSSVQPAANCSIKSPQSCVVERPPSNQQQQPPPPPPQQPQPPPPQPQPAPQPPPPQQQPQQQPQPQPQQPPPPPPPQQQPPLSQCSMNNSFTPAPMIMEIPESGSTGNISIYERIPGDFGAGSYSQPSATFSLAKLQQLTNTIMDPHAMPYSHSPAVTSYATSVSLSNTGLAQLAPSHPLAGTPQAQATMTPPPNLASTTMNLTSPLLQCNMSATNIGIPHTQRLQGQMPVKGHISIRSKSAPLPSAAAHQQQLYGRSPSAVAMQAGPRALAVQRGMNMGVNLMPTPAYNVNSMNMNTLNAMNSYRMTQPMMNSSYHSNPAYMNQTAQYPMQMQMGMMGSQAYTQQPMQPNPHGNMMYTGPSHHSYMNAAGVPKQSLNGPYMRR
READOUT_TYPE: IC50

- SMILES_DATA: "COc1cccc(OC)c1S(=O)(=O)Nc1noc2cc(Cn3cccn3)c3c(c12)OCCC3"
  READOUT_TYPE: "IC50"
  RESULT: "0.3 nM"
